- assayInfo: Plasma protein binding in dog
- Type: ADME, cell-free, Canis lupus familiaris
- conditionDetails: read-out: PPB (converted)
measurementKind: fraction unbound

[[record]]
smilesdata = "CC(C)c1nc2ccccc2n1-c1nc(N2CCOCC2)c2nc(OC3CN(C4CCS(=O)(=O)CC4)C3)n(C)c2n1"
observedvalue = 0.2


---

- Tested on: CHO-K1
- assayInfo: Genotoxicity in CHOK1 cells by micronucleus assay
- Type: toxicity, cell-based, Cricetulus griseus
- conditionDetails: chinese hamster
measurementKind: Activity

[[record]]
smilesdata = "Cc1nc2ccccc2n1-c1nc(N2CCOCC2)c2nc(CN3CCC(C(C)(C)O)CC3)n(C)c2n1"
measurementkind = "Activity"
observedvalue = "Toxic"

[[record]]
smilesdata = "CC(C)c1nc2ccccc2n1-c1nc(N2CCOCC2)c2nc(CN3CCC(C(C)(C)O)CC3)n(C)c2n1"
measurementkind = "Activity"
observedvalue = "Non-toxic"

[[record]]
smilesdata = "CNc1nc2ccccc2n1-c1nc(N2CCOCC2)c2nc(CN3CCC(C(C)(C)O)CC3)n(C)c2n1"
measurementkind = "Activity"
observedvalue = "Toxic"

[[record]]
smilesdata = "Cn1c(CN2CCC(C(C)(C)O)CC2)nc2c(N3CCOCC3)nc(-n3c(C4CC4)nc4ccccc43)nc21"
measurementkind = "Activity"
observedvalue = "Non-toxic"

[[record]]
smilesdata = "CC(C)(O)C1CCN(Cc2cc3nc(-c4cccc5[nH]ncc45)nc(N4CCOCC4)c3s2)CC1"
measurementkind = "Activity"
observedvalue = "Non-toxic"

[[record]]
smilesdata = "CCc1nc2ccccc2n1-c1nc(N2CCOCC2)c2nc(CN3CCC(C(C)(C)O)CC3)n(C)c2n1"
measurementkind = "Activity"
observedvalue = "Toxic"

[[record]]
smilesdata = "CCc1nc2ccccc2n1-c1nc(N2CCOCC2)c2sc(CN3CCC(C(C)(C)O)CC3)cc2n1"
measurementkind = "Activity"
observedvalue = "Non-toxic"

